- ASSAYED TARGET: cruzain (Trypanosoma cruzi);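 further: at 5 µM compound concentration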
- Sequence (P25779 123-337 limits assumed): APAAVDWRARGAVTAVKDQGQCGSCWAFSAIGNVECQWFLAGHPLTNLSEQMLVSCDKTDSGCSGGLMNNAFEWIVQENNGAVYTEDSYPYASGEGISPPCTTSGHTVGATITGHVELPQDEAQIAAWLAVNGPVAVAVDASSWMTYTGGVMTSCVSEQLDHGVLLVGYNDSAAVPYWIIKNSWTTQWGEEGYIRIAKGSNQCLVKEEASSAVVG
- ASSAY PROTOCOL: biochemical
- SETUP CONDITIONS: 10’ (pre-incubation time); sheet "Screening results"
We begin with a simple list: items and their reported Cruzain 10’ Inhibition.

COMPOUND | ASSAYED TARGET | Cruzain 10’ Inhibition (%)
CCCCc1ccc(C(=O)Nc2nccc3ccccc23)nc1 | cruzain (Trypanosoma cruzi) | -5
Cc1nn(C)cc1C(C)Nc1nncc(-c2ccc(C(F)(F)F)cc2)n1 (stereo not drawn) | cruzain (Trypanosoma cruzi) | -1.8
CN1CCC(c2cc(-c3ccncc3)c(-c3ccc(F)cc3)[nH]2)CC1 | cruzain (Trypanosoma cruzi) | 1.9
Cc1cnc(N2CCN[C@@H](Cc3ccccc3)C2)nc1Oc1ccc(-n2ccnc2)cc1 | cruzain (Trypanosoma cruzi) | 13
O=C(OCc1ccccc1)N1CCC(c2cc(-c3ccncc3)c(-c3ccc(F)cc3)[nH]2)CC1 | cruzain (Trypanosoma cruzi) | 3.8
c1ccc(Oc2ccc(-c3cc(N4CCOCC4)n[nH]3)cc2)cc1 | cruzain (Trypanosoma cruzi) | 29
CC1=Nc2ccc(Cl)cc2C(O)(c2ccc(C)cc2)N1CCN1CCCCC1 (stereo not drawn) | cruzain (Trypanosoma cruzi) | 0.1
O=C(NC1CCN(c2ccnc3ccccc23)C1)c1cccc(C(F)(F)F)c1 (stereo not drawn) | cruzain (Trypanosoma cruzi) | 14
C[C@]1(COc2ccc(N3CCC(Oc4ccc(OC(F)(F)F)cc4)CC3)cc2)Cn2cc([N+](=O)[O-])nc2O1 | cruzain (Trypanosoma cruzi) | -0.4
Cc1cc(Cl)c(S(=O)(=O)N2CCCC2)cc1OCC(=O)NC1CCCCC1 | cruzain (Trypanosoma cruzi) | 8
Nc1ncnc2c1c(Cc1cccc3ccccc13)nn2CC1CCNCC1 | cruzain (Trypanosoma cruzi) | 4.5
O=C1O[C@@H](COc2ccon2)CN1c1cc(F)c(C2=CCN(Cc3ccccc3)CC2)c(F)c1 | cruzain (Trypanosoma cruzi) | 23
Nc1nccc2ccc(-c3ccc4nccn4c3)cc12 | cruzain (Trypanosoma cruzi) | 8
CCCCc1ccc(NC(=O)Nc2ccc(O[C@H]3CCCC[C@@H]3N(C)c3ccccc3)c(F)c2)cc1 | cruzain (Trypanosoma cruzi) | -3.3
Cc1cc(NC(=O)c2ccc(S(=O)(=O)N(Cc3ccccc3)C(C)C)cc2)no1 | cruzain (Trypanosoma cruzi) | -4.5
COc1ccc(S(=O)(=O)Nc2ccc(CN3CCN(C(=O)c4cccc(C#N)c4)CC3)cc2)cc1 | cruzain (Trypanosoma cruzi) | 5.4
CCCCOC(=O)Nc1cc2[nH]c(C3CCCCC3)nc2cc1N1CCCC1 | cruzain (Trypanosoma cruzi) | 4.4
COc1cccc(CC(=O)N2CCC(n3c(C)nc4ccc(F)cc43)CC2)c1 | cruzain (Trypanosoma cruzi) | 10

====

- ASSAYED TARGET: TbrCatL (Trypanosoma brucei rhodesiense, UniProt Q95PM0)
- Construct: Conor Caffrey (University of California San Diego)
- Sequence (Q95PM0 entry or part of it): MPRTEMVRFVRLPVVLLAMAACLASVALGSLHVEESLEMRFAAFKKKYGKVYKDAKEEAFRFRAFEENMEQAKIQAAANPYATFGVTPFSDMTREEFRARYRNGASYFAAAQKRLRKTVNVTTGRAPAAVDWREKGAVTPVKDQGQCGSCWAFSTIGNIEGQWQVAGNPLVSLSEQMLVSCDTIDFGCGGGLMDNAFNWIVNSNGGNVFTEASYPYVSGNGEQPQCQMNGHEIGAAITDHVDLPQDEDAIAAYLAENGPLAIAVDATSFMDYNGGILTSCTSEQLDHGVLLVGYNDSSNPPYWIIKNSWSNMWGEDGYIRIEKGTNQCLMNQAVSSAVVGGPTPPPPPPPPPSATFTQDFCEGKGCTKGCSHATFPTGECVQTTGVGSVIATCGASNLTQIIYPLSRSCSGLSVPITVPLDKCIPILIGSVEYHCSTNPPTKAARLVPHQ
- ASSAY PROTOCOL: TbrCatL enzymatic inhibition assay (cleavage of fluorogenic substrate Z-FR-AMC);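 on TbrCatL 0’ Inhibition: at 5 µM compound concentration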
- Format: biochemical
- SETUP CONDITIONS: 0’ (pre-incubation time); sheet "Screening results"
ASSAY ENDPOINT: TbrCatL 0’ Inhibition (%)

COMPOUND | ASSAYED TARGET | RESULT UNIT | DATA VALUE
CCN(CC)CCCN1CCN(C(=O)c2cccc(-c3noc(C(F)(F)F)n3)c2)CC1 [MMV022236] | TbrCatL (Trypanosoma brucei rhodesiense, UniProt Q95PM0) | % | 7.4
Cc1ccc(S(=O)(=O)n2cc(-c3ccnc(N)c3)c3cc(Br)cnc32)cc1 [MMV024114] | TbrCatL (Trypanosoma brucei rhodesiense, UniProt Q95PM0) | % | -5
O=C(Nc1cccc(Cl)c1)c1cnc(N2CCN(c3ccncc3)CC2)c(Cl)c1 [MMV024406] | TbrCatL (Trypanosoma brucei rhodesiense, UniProt Q95PM0) | % | 3
COc1ccc2nccc(NC(=O)C3CCN(CCc4ccc(Cl)cc4)CC3)c2n1 [MMV688844] | TbrCatL (Trypanosoma brucei rhodesiense, UniProt Q95PM0) | % | 4
O=C(C1CCN(c2cc(-n3cccc3)ncn2)CC1)N1CCc2ccccc2C1 [MMV687172] | TbrCatL (Trypanosoma brucei rhodesiense, UniProt Q95PM0) | % | 0.3
Nc1ncnc2c1c(Cc1cccc3ccccc13)nn2CC1CCNCC1 [MMV676182] | TbrCatL (Trypanosoma brucei rhodesiense, UniProt Q95PM0) | % | 1.4
CN1CCC(c2cc(-c3ccncc3)c(-c3ccc(F)cc3)[nH]2)CC1 [MMV688703] | TbrCatL (Trypanosoma brucei rhodesiense, UniProt Q95PM0) | % | 6
Cc1ccccc1C(=O)N1NC(=Nc2ccccc2)SC1(C)C [MMV688771] | TbrCatL (Trypanosoma brucei rhodesiense, UniProt Q95PM0) | % | -5
c1ccc2c(c1)CN(CC1CC1)CC1(CCN(Cc3c[nH]c4cnccc34)CC1)O2 [MMV023183] | TbrCatL (Trypanosoma brucei rhodesiense, UniProt Q95PM0) | % | 6
COc1ccc(-c2nn(C(C)C)c3ncnc(N)c23)cc1OC [MMV675993] | TbrCatL (Trypanosoma brucei rhodesiense, UniProt Q95PM0) | % | -7
COc1cc(-c2cc(-c3ccc(S(C)(=O)=O)cc3)cnc2N)ccc1O [MMV010576] | TbrCatL (Trypanosoma brucei rhodesiense, UniProt Q95PM0) | % | 0.5
c1ccc(Oc2ccc(-c3cncc(-c4ccc5[nH]ccc5c4)n3)cc2)cc1 [MMV688178] | TbrCatL (Trypanosoma brucei rhodesiense, UniProt Q95PM0) | % | -10
c1cc(C2=NCCN2)cc(-c2cc(-c3ccc(C4=NCCN4)cc3)no2)c1 [MMV688361] | TbrCatL (Trypanosoma brucei rhodesiense, UniProt Q95PM0) | % | 1.9
FC(F)(F)c1cc(NCCc2ccccc2)nc(-c2ccccn2)n1 [MMV659010] | TbrCatL (Trypanosoma brucei rhodesiense, UniProt Q95PM0) | % | 8
Cc1cnc(N2CCN[C@@H](Cc3ccccc3)C2)nc1Oc1ccc(-n2ccnc2)cc1 [MMV687765] | TbrCatL (Trypanosoma brucei rhodesiense, UniProt Q95PM0) | % | 5
CCNC(=O)C(C)Nc1nc(-c2cccnc2)nc2sc(C)c(C)c12 (stereo not shown) [MMV1037162] | TbrCatL (Trypanosoma brucei rhodesiense, UniProt Q95PM0) | % | 6
CC(C(=O)N1CCCC1)N1CCN(S(=O)(=O)c2ccc(C(C)(C)C)cc2)CC1 (stereo not shown) [MMV020291] | TbrCatL (Trypanosoma brucei rhodesiense, UniProt Q95PM0) | % | 4.3
COc1ccc(-c2cncc3ccc(C(=O)NCCCn4ccnc4)nc23)cc1 [MMV020670] | TbrCatL (Trypanosoma brucei rhodesiense, UniProt Q95PM0) | % | -3
Cc1nc(-c2cccc(NCc3ccccc3)c2)[nH]c1C [MMV023227] | TbrCatL (Trypanosoma brucei rhodesiense, UniProt Q95PM0) | % | -7

====

We begin with a simple list: items and their reported inhibition at 100 µM.
- ASSAYED TARGET: TbrCatL (Trypanosoma brucei rhodesiense, UniProt Q95PM0)
- Construct: Conor Caffrey (University of California San Diego)
- ASSAY PROTOCOL: TbrCatL enzymatic inhibition assay (cleavage of fluorogenic substrate Z-FR-AMC)
- Type: biochemical
- SETUP CONDITIONS: read-out: Inhibition at 100 µM (Mean ± SEM %) TbrCatL 10′ inc
ASSAY ENDPOINT: inhibition at 100 µM (%)

COMPOUND STRUCTURE | ASSAYED TARGET | RESULT UNIT | DATA VALUE
COc1cc(C2=NCCN2)cc2cc(-c3ccc(C4=NCCN4)cc3)oc12 | TbrCatL (Trypanosoma brucei rhodesiense, UniProt Q95PM0) | % | 100
CN1CCN(S(=O)(=O)c2ccc(-c3ccc4c(Nc5ccc6nn[nH]c6c5)ccnc4c3)cc2)CC1 | TbrCatL (Trypanosoma brucei rhodesiense, UniProt Q95PM0) | % | 99
Cn1ccnc1CNCCS(=O)(=O)c1cccc(Nc2ccc(-c3cccc(F)c3)cn2)c1 | TbrCatL (Trypanosoma brucei rhodesiense, UniProt Q95PM0) | % | 100
N=C(N)Nc1ccc(-c2ccc(-c3ccc(NC(=N)N)cc3Cl)o2)c(Cl)c1 | TbrCatL (Trypanosoma brucei rhodesiense, UniProt Q95PM0) | % | 100
N#Cc1ccc(-c2cnc(N)c(-c3ccc(C(N)=O)cc3)n2)cc1 | TbrCatL (Trypanosoma brucei rhodesiense, UniProt Q95PM0) | % | 0
CN1CCN(CCCOc2ncc(Nc3ncc(-c4ccc(C(F)(F)F)c(F)c4)nc3C(N)=O)cn2)CC1 | TbrCatL (Trypanosoma brucei rhodesiense, UniProt Q95PM0) | % | 93
COc1ccc(C2=NN(C3CCCCCC3)C(=O)C2(C)C)cc1OCCCCOc1ccc(-c2nn[nH]n2)cc1 | TbrCatL (Trypanosoma brucei rhodesiense, UniProt Q95PM0) | % | 88
O=C(NCCN1CCCC1)c1cc(NCCCCN2CCC(F)(F)CC2)nc2ccc(Cl)cc12 | TbrCatL (Trypanosoma brucei rhodesiense, UniProt Q95PM0) | % | 11
